Reference for the values: patent US20200048328A1

- Experimental Target: T1, human serum albumin (human, UniProt P02768 25-609)
- T1 construct: immobilized on chips or coated on plates elsewhere; also called HSA; HuSA
- Measurement Protocol: SPR, albumin immobilized;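 note: biacore SPR with human, rhesus or mouse serum albumin amine-coupled to the chip (about 1200 RU), 3 min association, 6-10 min dissociation, reference-subtracted traces fitted with a 1:1 model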
Measured Property: pKd
Lab note — pKd values are minus log10 of concentrations in M.

Previously resolved entries follow.
PCSK9-PKE2 tandem 4472_E06 (designed binder, The real molecule is ONE polypeptide: PCSK9 domain, undisclosed linker I (a code letter), PKE2 domain. It is given here as two chains because the linker letters are unknown., also called 4427_E06; not shown: The inter-domain linker) PCSK9 domain: MGVSDVPRDLEVVAATPTSLLISWDAPAEGYGYYRITYGETGGNSPVQEFTVPVSKGTATISGLKPGVDYTITVYAVEFDFPGAGYYHRPISINYRTE PKE2 domain: GVSDVPRDLEVVAATPTSLLISWDAPAVTVRYYRITYGREVQKYSDLGPLYIYQEFTVPGSKSTATISGLKPGVDYTITVYAVTGSGESPASSKPISINYRTEHHHHHH : 7.16
PCSK9-PKE2 tandem Adnectin w/ his tag 4472_C06 (designed binder, also called ATI-1574; ADX_4472_C06) MGVSDVPRDLEVVAATPTSLLISWDAPAEGYGYYRITYGETGGNSPVQEFTVPVSKGTATISGLKPGVDYTITVYAVEFDFPGAGYYHRPISINYRTEPSTPPTPSPSTPPTPSPSGVSDVPRDLEVVAATPTSLLISWDAPAVTVRYYRITYGREVQKYSDLGPLYIYQEFTVPGSKSTATISGLKPGVDYTITVYAVTGSGESPASSKPISINYRTEHHHHHH : 7.13
PKE2 Adnectin 2629_E06 (designed binder, 10Fn3 domain with modified CD loop; the entry includes the His6 tail; also called ADX_2629_E06) MGVSDVPRDLEVVAATPTSLLISWDAPAVTVRYYRITYGREVQKYSDLGPLYIYQEFTVPGSKSTATISGLKPGVDYTITVYAVTGSGESPASSKPISINYRTEIDKPSQHHHHHH : 7.91

Turning now to a further record.
Problem: Suppose we examine the binder PCSK9-PKE2 tandem 4472_F08 (designed binder, The real molecule is ONE polypeptide: PCSK9 domain, undisclosed linker F, PKE2 domain. It is given here as two chains because the linker letters are unknown., not shown: The inter-domain linker) PCSK9 domain: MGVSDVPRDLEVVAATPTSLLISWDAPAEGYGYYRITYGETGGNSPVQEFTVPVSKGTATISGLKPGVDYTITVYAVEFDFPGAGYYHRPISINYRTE PKE2 domain: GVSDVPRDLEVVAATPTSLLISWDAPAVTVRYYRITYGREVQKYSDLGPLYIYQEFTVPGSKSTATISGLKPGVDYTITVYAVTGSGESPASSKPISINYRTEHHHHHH ; what pKd value has been reported?
Result: 7.17
